All figures here come from patent US8586598B2.

Assay: Solubility (no method given)
Assay type: physicochemical
Conditions: 5% dextrose solution, saline or isotonic; read-out: solubility in 5% dextrose solution
MEASUREMENT KIND: solubility

Entry `CNC(=O)c1nn(C)c2c1C(C)(C)Cc1cnc(Nc3ccc(N4CCN(C)CC4)cc3)nc1-2` : reported solubility = ?
< 0.1 mg/mL

###

Test: Solubility of compound 125 salts and free base (96-well plate, shaken at RT 30 minutes, filtered, HPLC)
Format: physicochemical
Conditions: 10% polysorbate 80 in 5% glucose solution, aqueous with cosolvent or surfactant or cyclodextrin, thermodynamic from solid
MEASUREMENT KIND: solubility at 30 min
Report the figure along with its unit, number first.

Entry `CNC(=O)c1nn(C)c2c1C(C)(C)Cc1cnc(Nc3ccc(N4CCN(C)CC4)cc3)nc1-2` : reported solubility at 30 min = ?
800 µg/mL
